The values you see were collected from patent US7964624B1.

Target: full-length hepatitis C viral protein NS3•4A (Hepatitis C virus genotype 1a)
Construct: hexa-histidine (N); made in house; host or cells: Sf9 insect cells (baculovirus, pVL1392)
Experiment: biochemical
Design: species or system HCV sub-type strain 1a
Conditions: Enzyme Assay 2 (HCV NS3 Peptide Cleavage Assay) activity, apparent Ki class
measured-property: Ki

compound: COc1cc(OC)c(C2=NO[C@]3(C2)CC(C(=O)N[C@@H](CC2CC2)C(=O)C(N)=O)N(C(=O)[C@@H](NC(=O)CC2CCCCCC2)C(C)(C)C)C3)cc1Cl (stereo partly drawn) [Compound 59]
study-system: full-length hepatitis C viral protein NS3•4A (Hepatitis C virus genotype 1a)
result: < 100 nM

Look up Ki for the entries below, preserving their order.
1. C=C[C@@H]1C[C@]1(NC(=O)[C@@H]1C[C@]2(CC(c3cccc(Cl)c3)=NO2)CN1C(=O)[C@@H](NC(=O)O[C@H]1CCOC1)C(C)(C)C)C(=O)O [Compound 269]
2. CCC[C@H](NC(=O)[C@@H]1C[C@]2(CC(c3cc(C)c(OC)c(C)c3)=NO2)CN1C(=O)[C@@H](NC(=O)CC1CCCCC1)C(C)(C)C)C(=O)C(=O)NC1CC1 [Compound 362]
3. CCC[C@H](NC(=O)[C@@H]1C[C@]2(CC(c3cccc(Cl)c3)=NO2)CN1C(=O)C(NS(=O)(=O)c1ccccc1)c1ccccc1)C(=O)C(=O)NC1CC1 (stereo partly drawn) [Compound 501]
4. CNC(=O)C(=O)[C@H](CC1CC1)NC(=O)[C@@H]1C[C@]2(CC(c3cc(Cl)cc4c3OCOC4)=NO2)CN1C(=O)[C@@H](NC(=O)CC1CCCCC1)C(C)(C)C [Compound 677]
5. CC(C)(C)[C@H](NC(=O)CC1CCCCC1)C(=O)N1C[C@@]2(CC(c3cccc(Cl)c3)=NO2)C[C@H]1C(=O)NC(CC1CCC1)C(=O)C(=O)NCC(F)(F)F (stereo partly drawn) [Compound 268]
6. CCC[C@H](NC(=O)[C@@H]1C[C@]2(CC(c3cccc(Cl)c3)=NO2)CN1C(=O)[C@H](CSC(C)(C)C)NC(=O)CC1CCCCC1)C(=O)C(=O)NC1CC1 [Compound 437]
7. CCC[C@H](NC(=O)[C@@H]1C[C@]2(CC(c3cccc(Cl)c3)=NO2)CN1C(=O)[C@@H](NC(=O)C1CCCCC1)C(C)(C)C)C(=O)C(=O)NC1CC1 [Compound 93]
8. C=C[C@@H]1C[C@]1(NC(=O)[C@@H]1C[C@]2(CC(c3cccc(Cl)c3)=NO2)CN1C(=O)[C@@H](NC(=O)OC1CCCC1)C(C)(C)C)C(=O)NS(=O)(=O)C1CC1 [Compound 190]

Data returned:
["> 500 nM", "< 100 nM", "> 500 nM", "< 100 nM", "> 500 nM", "> 500 nM", "< 100 nM", "< 100 nM"]
